test system: breast line MDA468; test: In vitro cell culture growth assay (MTS), MDA468; format: cell-based, human; details: Homo sapiens, 72 h, MDA468 cells, three days after drug treatment
measurement label: IC50 (nM)

compound: CCNC(=O)Nc1ccc(-c2nc(N3CCOCC3)c3cnn(C4CCN(Cc5cccnc5)CC4)c3n2)cc1
measurement label: IC50
numeric value: 27
//
compound: O=C(Nc1ccc(-c2nc(N3CCOCC3)c3cnn(C4CCN(Cc5ccccc5)CC4)c3n2)cc1)Nc1ncc[nH]1 [Example 326]
measurement label: IC50
numeric value: 3500
//
compound: CCn1nc(C#CCO)c2c(N3CCOCC3)nc(-c3ccc(NC(=O)Nc4cccnc4)cc3)nc21
measurement label: IC50
numeric value: 90
//
compound: COC(=O)Nc1ccc(-c2nc(N3CCOCC3)c3cnn(C4CCNCC4)c3n2)cc1
measurement label: IC50
numeric value: 3000
//
compound: O=C(Nc1ccncc1)Nc1ccc(-c2nc(N3CCOCC3)c3cnn(C4CCN(CC(F)(F)F)CC4)c3n2)cc1
measurement label: IC50
numeric value: 1100
//
compound: COC(=O)N1CCC(n2ncc3c(N4CCOCC4)nc(-c4ccc(NC(=O)Nc5ccc(CCNCCN)cc5)cc4)nc32)CC1
measurement label: IC50
numeric value: 300
//
compound: c1ccc(CN2CCC(n3ncc4c(N5CCOCC5)nc(-c5cnc6ccccc6c5)nc43)CC2)cc1 [Compound 230]
measurement label: IC50
numeric value: 22000
